Molecular target: T1, Human IL-11 (human, UniProt P20809 22-199); also: test concentration or dose not given here
T1 sequence: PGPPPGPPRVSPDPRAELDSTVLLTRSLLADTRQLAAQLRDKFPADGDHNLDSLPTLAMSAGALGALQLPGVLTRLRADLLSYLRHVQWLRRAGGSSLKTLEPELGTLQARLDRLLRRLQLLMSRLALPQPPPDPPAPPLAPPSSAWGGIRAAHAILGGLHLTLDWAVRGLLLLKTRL
Assay: cell-based or functional assay
measure: MMP2 production, Experiment 2 (human atrial fibroblasts + TGFB1)

{"binder": "YU100-A11 (antibody) EVQLQQSGGGVVQPGRSLRLSCAASGFTFSSYGMHWVRQAPGKGLEWVAVISYDGSNKYYADSVKGRFTISRDNSKNTLYLQMNSLRAEDTAVYYCAKIGATDPLDYWGQGTLVTVSSGSASAPKLEEGEFSEARVQSALTQPRSVSGSPGQSVTISCTGTSSDVGGYNYVSWYQQHPGKAPKLMIYDVSKRPSGVPDRFSGSKSGNTASLTISGLQAEDEADYYCCSYAGSYTWVFGGGTKLTVL", "reading": "45.7 ng/mL"}
{"binder": "YU100-E01 (antibody) QVQLQQSGGGVVQPGRSLRLSCAASGFTFSSYGMHWVRQAPGKGLEWVAVISYDGSNKYYADSVKGRFTISRDNSKNTLYLQMNSLRAEDTAVYYCAKIGATDPLDYWGQGTLVTVSSGSASAPKLEEGEFSEARVQSALTQPASVSGSPGQSITISCTGTSNDIGAYNYVSWYQQHPGKAPKLLIYDVNNRPSGVSDRFSGSKSGNTASLTISGLQAEDEADYYCCSYAGSYSWVFGGGTKLTVLGQPKANPTVTLFPPSS", "reading": "51.8 ng/mL"}
{"binder": "YU100-E08 (antibody) QVQLVQSGGGVVQPGRSLRLSCAASGFTFSSYAMHWVRQAPGKGLEWVAVISYDGSNKYYADSVKGRFTISRDNSKNTLYLQMNSLRAEDTAVYYCARIMGYDYGDYDVVDYWGQGTLVTVSSGSASAPKLEEGEFSEARVQSALTQPRSVSGSPGQSVTISCTGTSSDVGGYNYVSWYQQHPGKAPKLMIYDVSRRPSGVPDRFSGSKSGNTASLTISGLQAEDEADYYCCSYAGNYTWMFGGGTKLTVL", "reading": "59.7 ng/mL"}
{"binder": "YU100-E06 (antibody) QVQLVESGGGVVQPGRSLRLSCAASGFTFSSYGMHWVRQAPGKGLEWVAVISYDGSNKYYADSVKGRFTISRDNSKNTLYLQMNSLRAEDTAVYYCAKIGATDPLDYWGQGTLVTVSSGSASAPKLEEGEFSEARVQSALTQPASVSGFPEQSITISCTGTSSDVGGYDYVSWYQQHPGKAPKLMIYDVTNRPSGVSNRFSGSKSGNTASLTISGLQPEDEADYYCSSYTSNTTWVFGGGTKLTVLRQPKAAPSVTLFPPSS", "reading": "48.2 ng/mL"}
{"binder": "YU100-H02 (antibody) QVQLQQSGGGVVQPGRSLRLSCAASGFTFSSYGMHWVRQAPGKGLEWVAVISYDGSNKYYADSVKGRFTISRDNSKNTLYLQMNSLRAEDTAVYYCARIMGYDYGDYDVVDYWGQGTLVTVSSGSASAPKLEEGEFSEARVQSALTQPRSVSRSPGQSVTISCTGTSSDVGTYNYVSWYQQHPGKAPKLMIYDVSKRPSGVPDRFSGSKSGNTASLTISGLQAEDEADYYCCSYAGFYTWVFGGGTKLTVL", "reading": "51.3 ng/mL"}
